Molecular target: Muscarinic acetylcholine receptor M4 (Homo sapiens, UniProt P08173)
Sequence (P08173 whole entry): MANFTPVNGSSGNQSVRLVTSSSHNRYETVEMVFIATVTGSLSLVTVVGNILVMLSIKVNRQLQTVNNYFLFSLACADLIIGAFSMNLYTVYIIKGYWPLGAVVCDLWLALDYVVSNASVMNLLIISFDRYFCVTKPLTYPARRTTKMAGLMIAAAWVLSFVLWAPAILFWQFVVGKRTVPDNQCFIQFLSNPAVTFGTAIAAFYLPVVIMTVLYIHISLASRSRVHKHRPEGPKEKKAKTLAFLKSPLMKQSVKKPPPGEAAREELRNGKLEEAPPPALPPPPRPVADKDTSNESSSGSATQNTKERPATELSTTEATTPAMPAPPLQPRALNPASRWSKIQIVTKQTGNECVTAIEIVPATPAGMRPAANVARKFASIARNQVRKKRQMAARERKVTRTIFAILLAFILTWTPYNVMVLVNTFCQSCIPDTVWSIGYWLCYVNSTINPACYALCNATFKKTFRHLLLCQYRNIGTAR
Experiment: Agonist activity at human muscarinic M4 receptor expressed in CHO cells
Format: functional, cell-based

{"compound": "CC1COCC(C[N+](C)(C)C)O1 (racemic; form 2)", "unit-descriptor": "µM", "EC50": 282}
{"compound": "C[C@H]1COC[C@@H](C[N+](C)(C)C)O1", "unit-descriptor": "µM", "EC50": 2.82}
{"compound": "C[C@@H]1COC[C@H](C[N+](C)(C)C)O1", "unit-descriptor": "µM", "EC50": 25.1}
{"compound": "CC1COCC(C[N+](C)(C)C)O1 (racemic; form 1)", "unit-descriptor": "µM", "EC50": 2.51}

* * *

Target: Muscarinic acetylcholine receptor M1 (Homo sapiens)
Conditions: Oryctolagus cuniculus; Vas deferens
Description: Agonist activity at muscarinic M1 receptor in rabbit stimulated vas deferens
Classification field: True = pD2 at or over 6; False = pD2 under 6.

{"compound": "C[C@H]1CSC[C@@H](C[N+](C)(C)C)O1 (relative stereo)", "target-of-assay": "Muscarinic acetylcholine receptor M1 (Homo sapiens)", "category": "False"}
{"compound": "C[C@H]1COC[C@@H](C[N+](C)(C)C)O1", "target-of-assay": "Muscarinic acetylcholine receptor M1 (Homo sapiens)", "category": "True"}
{"compound": "CC1OC(C[N+](C)(C)C)CS1 (racemic)", "target-of-assay": "Muscarinic acetylcholine receptor M1 (Homo sapiens)", "category": "True"}
{"compound": "C[C@H]1COC[C@H](C[N+](C)(C)C)O1", "target-of-assay": "Muscarinic acetylcholine receptor M1 (Homo sapiens)", "category": "False"}
{"compound": "CC1COCC(C[N+](C)(C)C)O1 (racemic; form 1)", "target-of-assay": "Muscarinic acetylcholine receptor M1 (Homo sapiens)", "category": "False"}

* * *

Target: Muscarinic acetylcholine receptor M3 (Cavia porcellus) (UniProt Q8VH26)
Sequence (Q8VH26 1-587): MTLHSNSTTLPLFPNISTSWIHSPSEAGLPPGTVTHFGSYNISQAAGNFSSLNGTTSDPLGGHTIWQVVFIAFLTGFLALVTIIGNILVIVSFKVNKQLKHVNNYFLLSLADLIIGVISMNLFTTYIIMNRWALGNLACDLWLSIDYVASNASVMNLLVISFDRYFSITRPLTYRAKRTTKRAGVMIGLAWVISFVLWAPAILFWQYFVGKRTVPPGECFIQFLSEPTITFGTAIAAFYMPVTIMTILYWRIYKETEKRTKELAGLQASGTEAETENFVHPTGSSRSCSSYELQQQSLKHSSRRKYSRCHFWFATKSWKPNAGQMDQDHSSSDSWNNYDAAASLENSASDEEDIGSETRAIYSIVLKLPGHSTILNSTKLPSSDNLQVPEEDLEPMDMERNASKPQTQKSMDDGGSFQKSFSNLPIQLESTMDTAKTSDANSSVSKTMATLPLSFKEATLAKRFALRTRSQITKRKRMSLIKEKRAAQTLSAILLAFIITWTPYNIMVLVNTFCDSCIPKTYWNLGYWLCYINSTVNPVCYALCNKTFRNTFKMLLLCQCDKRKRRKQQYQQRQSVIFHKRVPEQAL
Test: Agonist activity at muscarinic M3 receptor in guinea-pig ileum
Format: functional, tissue-based
value-kind: pD2

{"molecule": "CC1COCC(C[N+](C)(C)C)O1 (racemic; form 1)", "test-value": 7.34}
{"molecule": "C[C@H]1COC[C@H](C[N+](C)(C)C)O1", "test-value": 6.02}
{"molecule": "C[C@H]1CSC[C@H](C[N+](C)(C)C)O1 (relative stereo)", "test-value": 5.21}
{"molecule": "C[C@H]1OC[C@@H](C[N+](C)(C)C)O1 (relative stereo)", "test-value": 7.69}
{"molecule": "C[C@H]1OCC[C@@H](C[N+](C)(C)C)O1", "test-value": 5.73}
{"molecule": "C[C@@H]1COC[C@H](C[N+](C)(C)C)O1", "test-value": 6.53}

* * *

Target: Muscarinic acetylcholine receptor M3 (Cavia porcellus) (UniProt Q8VH26)
Assay: Agonist activity at muscarinic M3 receptor in guinea-pig ileum
Type: functional, tissue-based
value-kind: pD2

{"molecule": "C[C@H]1COC[C@@H](C[N+](C)(C)C)O1", "test-value": 7.65}
{"molecule": "C[C@H]1O[C@@H](C[N+](C)(C)C)CS1", "test-value": 5.82}
{"molecule": "C[C@@H]1O[C@H](C[N+](C)(C)C)CS1", "test-value": 8.06}
{"molecule": "CC1OC(C[N+](C)(C)C)CS1 (racemic)", "test-value": 7.75}
{"molecule": "C[C@H]1CSC[C@@H](C[N+](C)(C)C)O1 (relative stereo)", "test-value": 6.46}
{"molecule": "C[C@H]1OC[C@H](C[N+](C)(C)C)O1 (relative stereo)", "test-value": 7.47}

Attribution: ChEMBL document CHEMBL1144548
